Where these numbers come from: ChEMBL document CHEMBL1155848

# assay name: Oral bioavailability in monkey at 5 mg/kg
# Type: ADME, organism-based, Macaca mulatta
# particulars: rhesus monkey, in vivo
attribute measured: bioavailability

Quick note, bioavailability for `Cc1ccc(Nc2nccc(N(C)c3ccc4c(C)n(C)nc4c3)n2)cc1S(N)(=O)=O` landed at 65%

----------
# study system: Cytochrome P450 3A4 (Homo sapiens)
# Sequence (P08684 whole entry): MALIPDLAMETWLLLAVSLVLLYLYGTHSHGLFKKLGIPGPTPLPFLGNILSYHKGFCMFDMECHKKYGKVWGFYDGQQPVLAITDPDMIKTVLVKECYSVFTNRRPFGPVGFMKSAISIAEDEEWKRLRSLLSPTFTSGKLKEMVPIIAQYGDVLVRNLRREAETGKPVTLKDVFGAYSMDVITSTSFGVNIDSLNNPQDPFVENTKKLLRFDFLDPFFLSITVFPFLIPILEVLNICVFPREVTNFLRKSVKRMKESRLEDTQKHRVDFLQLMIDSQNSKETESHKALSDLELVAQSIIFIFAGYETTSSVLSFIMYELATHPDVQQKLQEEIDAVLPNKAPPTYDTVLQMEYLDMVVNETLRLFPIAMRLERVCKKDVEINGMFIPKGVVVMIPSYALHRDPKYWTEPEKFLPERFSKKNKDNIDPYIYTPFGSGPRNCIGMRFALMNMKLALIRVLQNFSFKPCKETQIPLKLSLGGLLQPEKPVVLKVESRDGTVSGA
# assay name: Inhibition of human recombinant CYP3A4 using diethoxyfluorescein substrate
# Format: ADME
The reader will find reported IC50 values listed item by item below.
All answers are understood in µM, so give the number only.

Example compounds with recorded IC50:
{"compound": "CN(c1ccc2cn(C)nc2c1)c1ccnc(Nc2cccc(S(N)(=O)=O)c2)n1", "attribute measured": "IC50", "measured result": 4.7}
{"compound": "Cc1nc2cc(N(C)c3ccnc(Nc4cccc(S(N)(=O)=O)c4)n3)ccc2n1C", "attribute measured": "IC50", "measured result": 27}
{"compound": "Cc1nn(C)c2cc(N(C)c3ccnc(Nc4cccc(S(N)(=O)=O)c4)n3)ccc12 [GW770220A]", "attribute measured": "IC50", "measured result": 13}
{"compound": "Cc1c2ccc(N(C)c3ccnc(Nc4cccc(S(N)(=O)=O)c4)n3)cc2nn1C", "attribute measured": "IC50", "measured result": 16}
{"compound": "Cc1nc2ccc(N(C)c3ccnc(Nc4cccc(S(N)(=O)=O)c4)n3)cc2n1C", "attribute measured": "IC50", "measured result": 26}
{"compound": "Cc1c2ccc(N(C)c3ccnc(Nc4cccc(S(N)(=O)=O)c4)n3)cc2nn1Cc1ccccc1", "attribute measured": "IC50", "measured result": 74}

Per the records, this compound ( `Cc1n[nH]c2cc(N(C)c3ccnc(Nc4cccc(S(N)(=O)=O)c4)n3)ccc12` ) has IC50 equal to 7.6

----------
# study system: Vascular endothelial growth factor receptor 2 (Homo sapiens, UniProt P35968)
# Sequence (P35968 whole entry): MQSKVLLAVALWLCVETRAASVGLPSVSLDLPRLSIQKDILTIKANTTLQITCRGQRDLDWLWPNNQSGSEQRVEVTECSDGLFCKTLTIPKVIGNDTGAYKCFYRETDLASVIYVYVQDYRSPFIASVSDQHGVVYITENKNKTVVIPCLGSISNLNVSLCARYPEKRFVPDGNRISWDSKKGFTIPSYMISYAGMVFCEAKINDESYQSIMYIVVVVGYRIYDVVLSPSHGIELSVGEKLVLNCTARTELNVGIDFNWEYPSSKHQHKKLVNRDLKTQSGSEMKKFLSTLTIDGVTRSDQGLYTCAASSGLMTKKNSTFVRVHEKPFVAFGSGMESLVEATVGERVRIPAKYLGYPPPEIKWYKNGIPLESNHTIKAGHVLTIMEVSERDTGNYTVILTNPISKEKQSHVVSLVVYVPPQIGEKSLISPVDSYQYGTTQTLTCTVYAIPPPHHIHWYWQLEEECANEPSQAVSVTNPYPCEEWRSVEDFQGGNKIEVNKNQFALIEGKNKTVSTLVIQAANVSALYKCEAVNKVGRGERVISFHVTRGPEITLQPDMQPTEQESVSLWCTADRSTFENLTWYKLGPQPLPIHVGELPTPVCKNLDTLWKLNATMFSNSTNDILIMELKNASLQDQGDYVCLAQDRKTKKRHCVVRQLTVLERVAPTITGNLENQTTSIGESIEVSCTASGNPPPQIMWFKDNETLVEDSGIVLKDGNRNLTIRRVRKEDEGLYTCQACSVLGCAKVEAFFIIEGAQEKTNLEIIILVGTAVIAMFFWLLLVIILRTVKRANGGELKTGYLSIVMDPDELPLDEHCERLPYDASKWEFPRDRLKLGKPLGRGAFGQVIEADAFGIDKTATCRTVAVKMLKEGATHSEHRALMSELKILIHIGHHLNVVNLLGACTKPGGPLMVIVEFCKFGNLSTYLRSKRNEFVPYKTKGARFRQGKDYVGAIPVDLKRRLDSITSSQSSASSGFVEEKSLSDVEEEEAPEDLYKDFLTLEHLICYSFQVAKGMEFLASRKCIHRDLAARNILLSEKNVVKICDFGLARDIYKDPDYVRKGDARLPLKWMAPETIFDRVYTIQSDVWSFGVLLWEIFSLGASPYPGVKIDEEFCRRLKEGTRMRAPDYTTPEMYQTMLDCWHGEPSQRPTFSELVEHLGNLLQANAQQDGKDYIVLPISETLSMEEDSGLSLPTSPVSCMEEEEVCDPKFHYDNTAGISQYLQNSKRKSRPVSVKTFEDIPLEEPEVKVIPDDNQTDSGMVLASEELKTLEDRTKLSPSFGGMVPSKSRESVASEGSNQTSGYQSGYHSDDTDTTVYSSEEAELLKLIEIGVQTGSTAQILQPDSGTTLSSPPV
# assay name: Inhibition of human recombinant VEGFR2
attribute measured: pIC50
Reminder that pIC50 means the negative base-10 logarithm of the concentration expressed in mol/L.

Measured pIC50, `COc1cc2ncnc(Nc3ccc(C)c(O)c3)c2cc1OC` : 9.22

----------
# study system: Cytochrome P450 2C19 (Homo sapiens)
# Sequence (P33261 whole entry): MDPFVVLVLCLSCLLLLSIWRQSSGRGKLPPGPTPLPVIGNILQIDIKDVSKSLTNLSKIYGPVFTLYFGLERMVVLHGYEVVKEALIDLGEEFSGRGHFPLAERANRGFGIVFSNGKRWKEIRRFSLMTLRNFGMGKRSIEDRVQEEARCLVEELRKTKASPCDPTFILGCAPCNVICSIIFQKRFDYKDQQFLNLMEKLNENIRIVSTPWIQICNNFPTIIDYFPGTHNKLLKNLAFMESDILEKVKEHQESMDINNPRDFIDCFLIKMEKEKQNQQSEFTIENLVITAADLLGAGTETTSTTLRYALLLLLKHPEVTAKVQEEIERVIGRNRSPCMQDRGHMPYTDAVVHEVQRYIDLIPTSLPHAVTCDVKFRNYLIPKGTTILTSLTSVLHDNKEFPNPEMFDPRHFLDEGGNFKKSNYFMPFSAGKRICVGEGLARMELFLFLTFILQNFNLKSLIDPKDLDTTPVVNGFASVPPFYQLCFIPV
# assay name: Inhibition of human recombinant CYP2C19
Entries and their measured log10(IC50) follow.
The base-10 logarithm of IC50, taken with IC50 in µM, is what appears here.

Previously resolved entries follow.
{"compound": "CN(c1ccc2cn(C)nc2c1)c1ccnc(Nc2cccc(S(N)(=O)=O)c2)n1", "log10(IC50)": 0.96}
{"compound": "Cc1nc2ccc(N(C)c3ccnc(Nc4cccc(S(N)(=O)=O)c4)n3)cc2n1C", "log10(IC50)": 1.41}
{"compound": "Cc1nn(C)c2cc(N(C)c3ccnc(Nc4cccc(S(N)(=O)=O)c4)n3)ccc12 [GW770220A]", "log10(IC50)": 0.97}
{"compound": "Cc1c2ccc(N(C)c3ccnc(Nc4cccc(S(N)(=O)=O)c4)n3)cc2nn1Cc1ccccc1", "log10(IC50)": 0.15}
{"compound": "Cc1n[nH]c2cc(N(C)c3ccnc(Nc4cccc(S(N)(=O)=O)c4)n3)ccc12", "log10(IC50)": 0.86}

Recorded result, `Cc1nc2cc(N(C)c3ccnc(Nc4cccc(S(N)(=O)=O)c4)n3)ccc2n1C` , log10(IC50): 1.52

Form field log10(IC50), entry `Cc1c2ccc(N(C)c3ccnc(Nc4cccc(S(N)(=O)=O)c4)n3)cc2nn1C` : 1.30
